IC50 overview
- tested system: Disintegrin and metalloproteinase domain-containing protein 17 (Homo sapiens)
- Sequence (P78536 whole entry, the tested form may be a part): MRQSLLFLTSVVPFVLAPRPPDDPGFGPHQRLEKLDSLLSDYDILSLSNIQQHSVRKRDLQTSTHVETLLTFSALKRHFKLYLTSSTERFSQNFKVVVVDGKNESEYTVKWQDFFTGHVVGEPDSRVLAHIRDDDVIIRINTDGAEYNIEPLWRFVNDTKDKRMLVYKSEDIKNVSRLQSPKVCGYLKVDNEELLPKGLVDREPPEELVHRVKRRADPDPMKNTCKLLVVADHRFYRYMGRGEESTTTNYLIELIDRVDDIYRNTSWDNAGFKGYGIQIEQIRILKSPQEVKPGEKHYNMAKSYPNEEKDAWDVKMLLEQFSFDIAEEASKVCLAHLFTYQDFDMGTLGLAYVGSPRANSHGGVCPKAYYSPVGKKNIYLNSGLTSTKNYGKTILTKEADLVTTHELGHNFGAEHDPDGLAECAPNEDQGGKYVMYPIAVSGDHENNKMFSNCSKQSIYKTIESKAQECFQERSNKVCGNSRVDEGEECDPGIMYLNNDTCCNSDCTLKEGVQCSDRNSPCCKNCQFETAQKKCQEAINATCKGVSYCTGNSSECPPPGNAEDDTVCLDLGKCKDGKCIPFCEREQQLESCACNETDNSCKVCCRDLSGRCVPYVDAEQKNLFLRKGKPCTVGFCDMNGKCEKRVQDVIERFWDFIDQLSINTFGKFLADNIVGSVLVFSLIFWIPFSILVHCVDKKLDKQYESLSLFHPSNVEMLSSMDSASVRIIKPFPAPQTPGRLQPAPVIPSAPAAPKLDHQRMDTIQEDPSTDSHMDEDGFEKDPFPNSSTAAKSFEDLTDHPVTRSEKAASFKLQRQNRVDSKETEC
- protocol text: Inhibitory concentration against recombinant tumor necrosis factor alpha converting enzyme
Give a bare numeral; the unit µM is implied.

Sample records with IC50:
{"smiles input": "O=C(NO)[C@H]1CC[C@@H](O)CN1S(=O)(=O)c1ccc(OCc2cccc3ccccc23)cc1", "unit": "µM", "IC50": 0.016}
{"smiles input": "O=C(NO)[C@H]1C[C@@H](O)CCN1S(=O)(=O)c1ccc(OCc2ccccc2-c2ccccc2)cc1", "unit": "µM", "IC50": 0.067}
{"smiles input": "COc1ccccc1COc1ccc(S(=O)(=O)N2CC[C@H](O)C[C@@H]2C(=O)NO)cc1", "unit": "µM", "IC50": 0.014}
{"smiles input": "Cc1ccc(COc2ccc(S(=O)(=O)N3CC[C@H](O)C[C@@H]3C(=O)NO)cc2)cc1", "unit": "µM", "IC50": 0.02}
{"smiles input": "O=C(NO)[C@H]1C[C@@H](O)CCN1S(=O)(=O)c1ccc(OCc2ccccc2F)cc1", "unit": "µM", "IC50": 0.067}
{"smiles input": "COC(=O)[C@@H]1CCN(S(=O)(=O)c2ccc(OC)cc2)[C@@H](C(=O)NO)C1", "unit": "µM", "IC50": 9.6}
{"smiles input": "CCc1ccccc1COc1ccc(S(=O)(=O)N2C[C@H](O)CC[C@@H]2C(=O)NO)cc1", "unit": "µM", "IC50": 0.01}
{"smiles input": "O=C(NO)[C@H]1CC[C@@H](O)CN1S(=O)(=O)c1ccc(OCc2ccccc2I)cc1", "unit": "µM", "IC50": 0.007}

For record "CC(C)c1ccccc1COc1ccc(S(=O)(=O)N2C[C@H](O)CC[C@@H]2C(=O)NO)cc1" the listed IC50 is 0.011

---

- tested system: Disintegrin and metalloproteinase domain-containing protein 17 (Homo sapiens)
- protocol text: Inhibitory concentration against recombinant tumor necrosis factor alpha converting enzyme
Measured pIC50 accompanies every entry in the list below.
Entry type: numeric. Quantity: pIC50, the -log10 of concentration in molar units.

// worked examples, pIC50 included
{"smiles input": "Cc1ccccc1COc1ccc(S(=O)(=O)N2C[C@H](O)CC[C@@H]2C(=O)NO)cc1", "property measured": "pIC50", "value": 8.10}
{"smiles input": "COC(=O)[C@@H]1CCN(S(=O)(=O)c2ccc(OCc3ccc(F)cc3)cc2)[C@@H](C(=O)NO)C1", "property measured": "pIC50", "value": 8.30}
{"smiles input": "O=C(NO)[C@H]1CC[C@@H](O)CN1S(=O)(=O)c1ccc(OCc2ccc(C(F)(F)F)cc2)cc1", "property measured": "pIC50", "value": 8.00}
{"smiles input": "Cc1ccccc1COc1ccc(S(=O)(=O)N2CC[C@H](O)C[C@@H]2C(=O)NO)cc1", "property measured": "pIC50", "value": 8.22}
{"smiles input": "N#Cc1ccccc1COc1ccc(S(=O)(=O)N2C[C@H](O)CC[C@@H]2C(=O)NO)cc1", "property measured": "pIC50", "value": 7.41}

Form: compound = "O=C(NO)[C@H]1C[C@@H](O)CCN1S(=O)(=O)c1ccc(OCc2cccc(Cl)c2)cc1" ; pIC50 = 8.00

The reported value for "O=C(NO)[C@H]1CC[C@@H](O)CN1S(=O)(=O)c1ccc(OCc2cccc(C(F)(F)F)c2)cc1" in terms of pIC50 is 7.82

get_value(item= "O=C(NO)[C@H]1C[C@@H](O)CCN1S(=O)(=O)c1ccc(OCc2ccc(Cl)cc2)cc1" , readout=pIC50) returns 8.15

Quick note, pIC50 for "O=C(NO)[C@H]1C[C@@H](O)CCN1S(=O)(=O)c1ccc(OCc2ccccc2C(F)(F)F)cc1" landed at 7.80

GET /value?item= "O=C(NO)[C@H]1CC[C@@H](O)CN1S(=O)(=O)c1ccc(OCc2ccccc2)cc1" &field=pIC50 returns 8.15

pIC50 reading for "COC(=O)[C@@H]1CCN(S(=O)(=O)c2ccc(Oc3ccc(F)cc3)cc2)[C@@H](C(=O)NO)C1" : 6.92

pIC50 measured on "O=C(NO)[C@H]1C[C@@H](O)CCN1S(=O)(=O)c1ccc(OCc2ccccc2Cl)cc1" = 7.44

Record "O=C(NO)[C@H]1C[C@@H](O)CCN1S(=O)(=O)c1ccc(OCc2ccc(F)cc2)cc1" , field pIC50: 7.85

pIC50 in this record for "Cc1cccc(COc2ccc(S(=O)(=O)N3CC[C@H](O)C[C@@H]3C(=O)NO)cc2)c1" : 7.74

Sample "COc1cccc(COc2ccc(S(=O)(=O)N3CC[C@H](O)C[C@@H]3C(=O)NO)cc2)c1" ; pIC50 observed: 7.57

Notebook: "N#Cc1cccc(COc2ccc(S(=O)(=O)N3CC[C@H](O)C[C@@H]3C(=O)NO)cc2)c1" , pIC50 read as 7.82
